meta.source: PubChem BioAssay

- Assay Details: small-molecule microarray binders of probe aEGFR, primary screen, biochemical, biotinylated probe, 635/667 nm fluorescence (AID 1097);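 also: probe is a biotinylated anti-EGFR antibody binding compounds printed on slides; score combines fluorescence near 667 nm and signal to noise of each spot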
- Measurement Parameters: higher = more signal
Recorded Metric: composite z-score
Number only, no unit.

For record CC(CCC(=O)OC[C@H]1O[C@H](C#Cc2ccccc2)C=C[C@@H]1Oc1ccc(C)cc1)=NOC(C)CN1CCCc2nc(C)c(C)cc21 (some centres not stated) the listed composite z-score is -0.0267

Just so you know, measured composite z-score for CC(CCC(=O)OC[C@H]1O[C@H](C#Cc2ccccc2)C=C[C@@H]1Oc1ccc(C)cc1)=NOC[C@@H](C)[C@H](OCc1ccccc1)C(C)C came out at -0.24

For this compound ( CC(C)=NOC(C)CN1CCCCc2nc(C)c(C)cc21 (configuration not stated) ), measured composite z-score is -0.027

Memo: CC(C)=CCCC(C)=CCON=C1C[C@@H](O)[C@@H](O)[C@@H]2[C@@H]3C(=O)N(Cc4ccc5c(c4)OCO5)C(=O)[C@@H]3CC[C@H]12 , reported composite z-score: -0.0271

Value of measured composite z-score for the entry CCN1C(=O)[C@H]2[C@H]3[C@H](O)[C@H](O)CC(=NOC[C@@H](O)[C@H]4O[C@@H]5OC(C)(C)O[C@@H]5[C@H]4O)[C@@H]3CC[C@H]2C1=O : -0.0685

Just so you know, measured composite z-score for CO[C@@H]1COC(=O)[C@H](CCSC)NC(=O)CC=C[C@@H](C)COC(=O)[C@@H]2CCCN2C(=O)CC=C[C@H]1C came out at -0.0675

CC(=O)OC[C@H]1O[C@H](CCON=C(C)CCN2CCCc3nc(C)c(C)cc32)C=C[C@@H]1OC(C)=O yielded composite z-score of 0.577

---

Consider the following compounds; for each one, report its composite z-score.
- System: XIP peptide (Xip251-270)
- Assay Details: small-molecule binders of XIP peptide, primary screen, biochemical, small-molecule microarray, fluorescence 635/667 nm, 0.5 µg/mL protein (AID 1183)
- Measurement Parameters: small-molecule microarray binding, fluorescence 635 nm; higher = more signal

Lab note: CC(C)=NOC(C)CN1CCCc2nc(C)c(C)cc21 (stereo not drawn) gave composite z-score of 0.522

For reference, reported composite z-score for O=C1C2=CC[C@H]3C(=O)N(C[C@@H]4CCCO4)C(=O)[C@H]3[C@H]2[C@H](O)[C@@H]2O[C@H]12 stands at 0.39

Measured composite z-score of CC(=O)OC[C@H]1O[C@@H](ON=C2[C@H]3CCn4c(=O)n(-c5ccccc5)c(=O)n4[C@H]3[C@H](O)[C@@H]3O[C@H]23)[C@H](OC(C)=O)[C@@H](OC(C)=O)[C@@H]1OC(C)=O : 0.292

Lab book: composite z-score of CCOC(=O)[C@H](CC(C)C)NC(=O)CCC1CC(OC(=O)NCc2ccc3c(c2)OCO3)CC2(CCCC(COC(=O)NCCc3ccc(Cl)cc3)O2)O1 (stereo partly drawn) noted as 0.137

# compound CC(CCN1CCCc2nc(C)c(C)cc21)=NOC[C@@H](O)COCc1ccco1 ; its composite z-score = 0.831

The compound identified as CCOC(=O)NN=C1C[C@@H](O)[C@@H](O)[C@@H]2[C@@H]3C(=O)N(CC)C(=O)[C@@H]3CC[C@H]12 registered its composite z-score at -0.379

Entry under test: CO[C@H]1COC(=O)[C@H](C)COC(=O)[C@@H](OCc2ccccc2)C=C[C@@H]1C . Its composite z-score was -0.348

According to the records, this compound COC(=O)CC=C[C@@H](C)[C@@H](C=NOC(C)CN1CCCCc2nc(C)c(C)cc21)NS(=O)(=O)c1ccc(C)cc1 (stereo partly drawn) displays composite z-score of -0.0903

---

- Assay Details: P. aeruginosa biofilm formation inhibitors, primary screen, PAO1 strain, BacTiter-Glo luminescence, LB-PBS (AID 1144)
- Measurement Parameters: 12 h, higher = more signal
Active and inactive are the calls of the source. No rule for the calls is given here.
Recorded Metric: z-score

# z-score of C[C@H]1CC[C@@H](C(=O)O)N[C@@H]1c1cccc(N2CCCC2=O)c1 = -0.43 (inactive)

For this molecule ( CCOC(=O)CCN1C(=O)[C@H]2[C@H]3[C@H](O)[C@H](O)CC(=O)[C@@H]3CC[C@H]2C1=O ), measured z-score is -0.401 (inactive)

Kindly note the recorded z-score for CCOC(=O)[C@H](Cc1ccccc1)NC(=O)CCC1CC(OC(=O)NCc2ccc3c(c2)OCO3)CC2(CCCC(COC(=O)NCCCN3CCCC3=O)O2)O1 (some centres undefined) , which is 0.14 (inactive)

The value of z-score measured for the molecule O=C1C=C[C@@H](O)[C@@H]2[C@@H]3C(=O)N(Cc4ccc5c(c4)OCO5)C(=O)[C@@H]3CC[C@@H]12 turned out to be 0.917 (inactive)

---

- Assay Details: small-molecule microarray binders of probe aCHRDL2, primary screen, biochemical, biotinylated probe, 635/667 nm fluorescence (AID 1100)
- Measurement Parameters: higher = more signal
Kindly state composite z-score for each of the entries shown.
Answer with the value's number alone.

Reported composite z-score of COC(=O)[C@H](C)NC(=O)CCC1CC(OC(=O)NCc2ccc3c(c2)OCO3)CC2(CCCC(COC(=O)NCCc3ccc(Cl)cc3)O2)O1 (stereo not given in full) : -0.589

In plain terms, CCOC(=O)CCN1C(=O)[C@H]2[C@H]3[C@H](O)[C@H](O)CC(=NOCC=C(C)CCC=C(C)C)[C@@H]3CC[C@H]2C1=O has a documented composite z-score of -0.202

Value of composite z-score reported for the compound CC(CCN1CCCc2nc(C)c(C)cc21)=NO[C@@H](C)c1cn([C@H](CO)Cc2ccccc2)nn1 is -0.388

composite z-score in this record for C=C(C)C(=O)OC[C@H]1CN2[C@@H](CC[C@@H](C)[C@@H]2c2ccc(Br)cc2)C(=O)O1 : -0.264

Reported composite z-score ( COC(=O)[C@@H]1CC[C@H](C)[C@@H](c2ccc(C)cc2)N1C(=O)c1ccc(C=NOC[C@H]2O[C@H](c3ccccc3)C=C[C@@H]2Oc2ccc(OC)cc2)cc1 ) = -0.32

The compound O=C1C[C@@H](O)[C@@H](O)[C@@H]2[C@@H]3C(=O)N(Cc4ccccc4)C(=O)[C@@H]3CC[C@H]12 showed composite z-score equal to -0.506

Measured composite z-score, O=C1C=C[C@@H](O)[C@@H]2[C@@H]3C(=O)N(Cc4ccccc4)C(=O)[C@@H]3CC[C@@H]12 : -0.684

Sure, the documented composite z-score for CC(C)C(=O)N[C@H]1CCCN1C(=O)C=Cc1ccccc1 is -0.43

CCC1=NOC(CCC2CC(OC(=O)NCc3cccc4c3OCO4)CC3(CCCC(COC(=O)NCCc4ccc(Cl)cc4)O3)O2)C1 (stereo not given) has a reported composite z-score of -0.341

Quick note, composite z-score for CC(CCN1CCc2nc(-c3ccccc3)c(-c3ccccc3)cc2C1)=NO[C@@H](C)c1cc(-c2c(C)cc(C)cc2C)no1 landed at 0.77

For O=C1C=C[C@@H](O)[C@@H]2[C@@H]3C(=O)N(c4cccc(Oc5ccccc5)c4)C(=O)[C@@H]3CC[C@@H]12 the compound record lists composite z-score as -0.597

Lab note: measured composite z-score of CCOC(=O)NN=C1C[C@@H](O)[C@@H](O)[C@@H]2[C@@H]3C(=O)N(CC)C(=O)[C@@H]3CC[C@H]12 was -0.254

# composite z-score (compound: CCOC(=O)[C@H](CC(C)C)NC(=O)CCC1CC(OC(=O)NCc2ccc3c(c2)OCO3)CC2(CCCC(COC(=O)NCCc3ccc(Cl)cc3)O2)O1 (stereo not given in full) ) is -0.514

Data point: CO[C@@H]1COC(=O)[C@H](CCSC)NC(=O)CC=C[C@@H](C)COC(=O)[C@@H]2CCCN2C(=O)CC=C[C@H]1C ; composite z-score = -0.584

Entry O=C1[C@H]2[C@H]3[C@H](O)[C@H](O)CC(=NOCc4ccccc4)[C@@H]3CC[C@H]2C(=O)N1c1cccc(Oc2ccccc2)c1 ; composite z-score = -0.186

---

- Assayed System: Homeobox protein Hox-A13 (Mus musculus)
- Assay Details: inhibitors of HoxA13-DNA binding, primary screen, biochemical, fluorescence polarization, labeled oligonucleotide (AID 1185)
- Measurement Parameters: 15 min, higher = more signal, called active from +8 up or from −8 down
Response key: y means z-score >= 0.3; n means z-score < 0.3.

## Task Answer whether z-score of COc1ccc(COC(=O)NN=C2C[C@@H](O)[C@@H](O)[C@@H]3[C@@H]4C(=O)N(Cc5ccccc5)C(=O)[C@@H]4CC[C@@H]23)cc1 is greater than or equal to 0.3.
## Result n

## Task Check the entry CC(CCN1CCc2nc(-c3ccccc3)c(-c3ccccc3)cc2C1)=NO[C@@H](C)c1cc(-c2c(C)cc(C)cc2C)no1 : does z-score equal or exceed 0.3?
## Result y

## Task Could you tell me if the measured z-score of CCCNC(=O)OC[C@H]1O[C@H](CCON=C2c3cc(OC)ccc3O[C@H](c3cccc(OC)c3)[C@H]2O)C=C[C@@H]1Oc1ccc(OC)cc1 reaches 0.3 or more?
## Result n

## Task Would you say CO[C@H]1COC(=O)CCC[C@H](C)[C@H](OC)COC(=O)CC=C[C@@H]1C shows z-score at minimum 0.3?
## Result n

## Task Please tell me: is the molecule CCOC(=O)[C@H](Cc1ccccc1)NC(=O)CCC1CC(OC(=O)NCc2cccc3ccccc23)CC2(CCCC(COC(=O)NCC3CCCCC3)O2)O1 (some centres not stated) at or over 0.3 in terms of z-score?
## Result n

## Task Decide: z-score of CCN1C(=O)[C@H]2[C@H]3[C@H](O)[C@H](O)CC(=NOC[C@@H](O)COCc4ccco4)[C@H]3CC[C@H]2C1=O >= 0.3?
## Result y

## Task # bool: z-score of O=C1[C@H]2[C@H]3[C@H](O)[C@H](O)CC(=NOC[C@@H](O)COCc4ccco4)[C@@H]3CC[C@H]2C(=O)N1Cc1ccc2c(c1)OCO2 >= 0.3
## Result n
